The reported numbers originate from patent EP4471049A1.

Target: human IL-23R (Homo sapiens, UniProt Q5VWK5)
Test: biochemical
*1 amine or outer side, *2 acyl side, *3 side chain or, on linkers, in order; H or OH if unused. Where a SMILES comes first, the peptide text is derived from it. Bridges are numbered along the chain shown (N, C = ends). [ ]: non-standard residue; d: D form. 2Nal = N[C@@H](Cc1ccc2ccccc2c1)C(=O)O; AEF = NCCOc1ccc(C[C@H](N)C(=O)O)cc1; X1 = O=C(Cc1ccc(CN[*:1])cc1)[*:2]; 3Pal = N[C@@H](Cc1cccnc1)C(=O)O; αMeL = CC(C)C[C@](C)(N)C(=O)O; CH2COCH2 = O=C(C[*:1])C[*:2]; Dab = NCC[C@H](N)C(=O)O; βAla = NCCC(=O)O
Catalogue of compounds with associated pIC50
// pIC50 is dimensionless: -log10 of concentration (M)

Previously resolved entries follow.
- CNC(=O)[C@H](Cc1cccnc1)NC(=O)[C@H](CO)NC(=O)[C@@H]1CCC(=O)NCc2ccc(cc2)CC(=O)N[C@@H](CO)C(=O)N[C@H]2CCC(=O)NCC[C@H](NC(=O)[C@H](CCC(N)=O)NC(=O)[C@H](Cc3c[nH]c4ccccc34)NC2=O)C(=O)N[C@@H](Cc2ccc(OCCN)cc2)C(=O)N[C@@H](Cc2ccc3ccccc3c2)C(=O)N[C@@](C)(CC(C)C)C(=O)N1 [Compound 31] ([X1]SEWQ[Dab][AEF][2Nal][αMeL]ES[3Pal]-NHMe; lactam 3-6, N-10): 10.92
- CC(C)C[C@]1(C)NC(=O)[C@H](Cc2ccc3ccccc3c2)NC(=O)[C@H](Cc2ccc(OCCN)cc2)NC(=O)[C@@H]2CCNC(=O)CC[C@H](NC(=O)[C@H](CO)NC(=O)Cc3ccc(cc3)CNC(=O)CC[C@@H](C(=O)N[C@@H](CCN)C(=O)N[C@@](C)(Cc3cccnc3)C(N)=O)NC1=O)C(=O)N[C@@H](Cc1c[nH]c3ccccc13)C(=O)N[C@@H](CCC(N)=O)C(=O)N2: 10.47

Proceed to the following item.
What pIC50 value was documented for this compound, CC(C)C[C@]1(C)NC(=O)[C@H](Cc2ccc3ccccc3c2)NC(=O)[C@H](Cc2ccc(OCCN)cc2)NC(=O)[C@@H]2CSCC(=O)CSC[C@H](NC(=O)[C@H](CO)NC(=O)[C@H](Cc3cccnc3)NC(=O)CCNC(=O)CC[C@@H](C(=O)N[C@H](CCCNC(=N)N)C(N)=O)NC1=O)C(=O)N[C@@H](Cc1c[nH]c3ccccc13)C(=O)N[C@@H](CCC(N)=O)C(=O)N2 [Compound 1] ([βAla][3Pal]SCWQC[AEF][2Nal][αMeL]E[dR]-NH2; linker 4-7 via CH2COCH2; lactam N-11) ?
8.27
